TESTED ON: T1, HTRA4, P83105
T1 sequence (P83105 378-476, limits assumed, looked up): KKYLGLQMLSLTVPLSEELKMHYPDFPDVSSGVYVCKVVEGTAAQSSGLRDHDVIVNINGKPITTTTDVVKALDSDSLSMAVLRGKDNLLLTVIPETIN
ASSAY TEXT: holdup assay
Parameters: key: below the threshold = too weak to quantify, mostly under pKd 3.1 to 4
TEST PARAMETERS: plain residues with an end cap or a label only (N-terminal biotin on a linker: ado-ado)
MEASURED ENDPOINT: pKd
// print number alone

Prompt: Tell me its pKd given TNSKQGETTV [FZD1, Q9UP38] as the entry.
Response: 3.79

Prompt: For the binder TKEIPNCTSV [SORCS3, Q9UPU3] , give its reported pKd.
Response: 4.44

Prompt: Let me know recorded pKd for YAEKRMLTEV [KCNA6, P17658] , thanks.
Response: 4.38

Prompt: Hello, please tell me recorded pKd for this one: SGDGKTSVWI [GJC1, P36383]
Response: 4.64

Prompt: Output pKd of SQPLLVHDDV [KIT, P10721]
Response: 3.88

Prompt: Please supply the value of reported pKd for the item VISSDDLTEL [CAPN6, Q9Y6Q1]
Response: 3.92

Prompt: Give the reported value of pKd for this record: RDYTQSSSSL [GRM5, P41594]
Response: 3.85

Prompt: Quickly give me recorded pKd for KAEEKPPSKV [SCN4B, Q8IWT1]
Response: 3.93

Prompt: Tell me measured pKd for TFSRRPKTRV [CD226, Q15762] please.
Response: 4.01

Prompt: Quickly give me recorded pKd for EFKQTSSFLV [JAM1, Q9Y624]
Response: 4.05

Prompt: Complete the entry with pKd for VCMGDHWFDV [PRKN, O60260]
Response: 3.98

Just for reference, paper PMC9482650 is where these values come from.
